Let's look at some variants and their measured abundance fitness.
B1: Intersectin-1, residues 909 to 971; numbered along this chain, Q15811 (parent)
chain: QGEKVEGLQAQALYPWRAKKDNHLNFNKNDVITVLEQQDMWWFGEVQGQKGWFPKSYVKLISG

# Variants of: B1
# EXPERIMENT SUMMARY: abundance fitness (aPCA) (normalised: wild type 0, dead -1); higher = more abundant; growth selection in yeast, the domain comes from the species named
# CONDITION NOTES: Homo sapiens
MEASURED QUANTITY: abundance fitness

    mutation_id  measured_quantity  reported_measurement
 0         D30Y  abundance fitness                -0.469
 1         N22R  abundance fitness                -0.142
 2         H23R  abundance fitness                -0.254
 3         K19Q  abundance fitness                 0.069
 4         L24P  abundance fitness                -0.383
 5          K4L  abundance fitness                -0.248
 6         S62Y  abundance fitness                -0.626
 7          G2L  abundance fitness                -0.386
 8         D21N  abundance fitness                -0.265
 9         G48V  abundance fitness                -0.584
10         L13E  abundance fitness                -0.267
